These entries and their values trace back to PubChem BioAssay (NCI).

- Test system: MDA-MB-231 breast
- assay.notes: NCI-60 one-dose screen, 48 h
- experimental.setup: 10 µM unless noted
The panel holds about 83,000 compounds, 20% with a hit somewhere; the sample as a whole holds those more often. The source made the active and inactive calls. Rule for the calls: active = growth percent below 10; inactive = the rest.
Classes used: t (active), f (inactive)

molecule	assigned.category
Cc1cccc(C[C@H](NC(=O)Nc2ccc(Cl)cc2F)C(=O)N[C@@H]2C(=O)N3C[C@H](O)C[C@H]3C(=O)N3CCN(C)C[C@H]3C(=O)N[C@@H](C)C(=O)N3C[C@H](C)C[C@H]3C(=O)O[C@H]2C)c1	f
CC(C)(C)c1cc(C(=O)Nc2ccccc2C(=O)NCCN)cc(C(C)(C)C)c1	t
C[C@]12CCc3c(ccc4cc(O)ccc34)[C@@H]1CC[C@H]2O	f
Nc1cc(C(=O)O)[nH]c(=S)n1	f
CCN(CC)CCCOc1ccc2c(c1)O/C(=C\c1cccc(OC)c1)C2=O	f
O=C1/C(=C/c2ccc(OCc3ccccc3)cc2)Oc2cc(OCCN3CCCCC3)ccc21	f
CC(C)C1=NOC(=O)C1=Cc1cn(-c2ccccc2)nc1-c1ccccc1	f
CN(C)c1ccc(N=Nc2ccc3ccccc3c2)cc1	f
COc1cc(C)cc2oc3oc(=O)c(-c4nc5ccccc5s4)cc3c(=O)c12	f
CCOC(=O)C1=C(C(=O)c2ccc(Br)cc2)C(c2ccc(Br)cc2)NC(=S)N1 (stereo not given)	f
Cc1ccc(S(=O)(=O)NCCCNc2nccc(-c3c(-c4cccc(F)c4)nc4occn34)n2)cc1	f
CCOC(=O)Nc1ccc2c(c1)/C(=N\NC(=S)NC)c1ccccc1-2	f
CCN(CCNc1ccc(C)c2sc3cc(Cl)ccc3c(=O)c12)CC(C)O (stereo not given)	t
COC(=O)c1cc2c(=O)[nH]cc3c2c(n1)CCC3	f
CC(C)=CCC[C@](C)(O)[C@H]1CC[C@]2(C)[C@@H]1CC[C@@H]1[C@@]3(C)CC[C@H](OC(=O)CCC(=O)O)C(C)(C)[C@@H]3CC[C@]12C	f

====

- Test system: PC-3 prostate
- assay.notes: NCI-60 one-dose screen, 48 h (100 = growth as untreated, 0 = no growth, -100 = all killed)
- experimental.setup: 10 µM unless noted
About 83,000 compounds went through this panel and 20% of them were active in at least one assay; those are over-represented in the sample as a whole.

compound	growth / %
COc1cc2c(cc1OCCCCCOc1ccc(-n3c(C)nc4ccccc4c3=O)cc1)N=C[C@@H]1CCCN1C2=O	4.39
O=c1[nH]c(CN2CCN(c3cccc(Cl)c3)CC2)nc2cc(Cl)ccc12	90.6
CS(=O)(=O)c1cccnn1	95.6
CCOC(=O)C(c1ccccc1)N1C(=O)c2ccccc2C1=O (stereo unspecified)	98.4
CSc1nc2c(c(=O)n1C)C1(C(=O)N(Cc3ccccc3)c3ccccc31)c1c(nc(SC)n(C)c1=O)N2	44.9
c1cc2ccc3cc2cc1CNCCN1CCNCc2ccc4ccc(cc4c2)CNCCN(CCNC3)CCNCc2ccc3ccc(cc3c2)CNCC1	-0.11

====

Measured growth, listed per entry.
- Tested on: LOX IMVI melanoma
- assay.notes: NCI-60 one-dose screen, 48 h (100 = growth as untreated, 0 = no growth, -100 = all killed)
- experimental.setup: 10 µM unless noted
Compounds without any hit were thinned out: in the full panel of roughly 83,000, 20% have a hit. The source made the active and inactive calls. Rule for the calls: active = growth percent below 10; inactive = the rest.
reported.property: growth

input.smiles	reported.property	value.measured
CCn1cc(-c2ccnc(NCCNS(=O)(=O)c3cccc4ccccc34)c2)c(-c2cccc(O)c2)n1	growth	111% (inactive)
COc1ccc2nc3cc(Cl)ccc3c(Nc3ccc(O)c(CN4CCCC4)c3)c2c1	growth	-68.6% (active)
Cc1cc(N2CCCCCC2)nc(N2CCN(CC(=O)Nc3ccc4c(ccn4Cc4ccccc4)c3)CC2)n1	growth	44.1% (inactive)
CC[C@]12C=CCN3CC[C@@]4(c5ccc(OC)cc5N(C)[C@H]4[C@@](O)(C(=O)OC)[C@@H]1OC(=O)CCC(=O)N[C@H](Cc1c[nH]c4ccccc14)C(=O)OC)[C@@H]32	growth	-54.4% [100 µM] (active)

====

- Tested on: NCI-H23 lung
- assay.notes: NCI-60 one-dose screen, 48 h (100 = growth as untreated, 0 = no growth, -100 = all killed)
- experimental.setup: 10 µM unless noted
Compounds without any hit were thinned out: in the full panel of roughly 83,000, 20% have a hit. Calls of active or inactive are those of the source. How the source made its calls: active means growth percent below 10; inactive means the rest.
reported.property: growth

compound	value.measured
CC(C)=CCC[C@](C)(O)[C@H]1CC[C@]2(C)[C@@H]1CC[C@@H]1[C@@]3(C)CC/C(=N/O)C(C)(C)[C@@H]3CC[C@]12C	-56.9% [100 µM] (active)
COc1ccc2c(c1)C(C)Cc1c(ncnc1-n1cnc3ccccc31)N2C (stereo not given)	32.3% (inactive)
COc1cc(/C=C/C(=O)/C=C/c2ccc(-n3ccnc3)cc2)ccc1O	60.6% (inactive)
CCOC(=O)c1cc(C(=O)c2ccc(OC)c(OC)c2)n2ccc(-c3ccccn3)cc12	78% (inactive)
COc1cc(C)cc2oc3oc(=O)c(-c4nc5ccccc5s4)cc3c(=O)c12	96.9% (inactive)
C=C1C(=O)O[C@H]2[C@H]1CC/C(COC(=O)NCc1ccc(Cn3c(=O)sn(-c4ccc(Cl)cc4)c3=O)cc1)=C\CC[C@@]1(C)O[C@@H]21	94.9% (inactive)
O=C1Cc2c(sc3c(F)cccc23)C(c2ccccc2[N+](=O)[O-])N1 (stereo not given)	98.6% (inactive)
CC(C)OC(=O)Nc1cc(F)c(F)cc1F	99% (inactive)
CCOC(=O)CCC[P+](c1ccccc1)(c1ccccc1)c1ccccc1	87.9% (inactive)
O=C(Nc1ccc(Oc2ccc(F)cc2)c(Cl)c1)c1cccnn1	62.3% (inactive)
CCOC(=O)c1nn(C2CCCCO2)c2ccc(NS(=O)(=O)c3ccc(C)cc3)cc12 (stereo not given)	100% (inactive)
CCN(CC)c1ccc2cc(C(Nc3ccc(Cl)cc3)c3nnnn3C(C)(C)C)c(=O)oc2c1 (stereo not given)	95.6% (inactive)
Cc1ccc2c(c1)C(C)Cc1c(Cl)ncnc1N2C (stereo not given)	20.7% (inactive)
Nc1nc(Nc2ccccc2)c2ncn(Cc3ccc4c(c3)OCO4)c2n1	62.8% (inactive)
NC(=O)c1cccc(-c2ccc(S(=O)(=O)Nc3ccc4c(c3)N(C(=O)C3CC3)CCC4)cc2)c1	48% (inactive)
Cc1ccc(NC(=O)N[C@@H](Cc2cc(F)cc(F)c2)C(=O)N[C@@H]2C(=O)N3CCC[C@H]3C(=O)N3CCCC[C@H]3C(=O)N[C@@H](C)C(=O)N3C[C@H](C)C[C@H]3C(=O)O[C@H]2C)cc1	33.5% (inactive)
CCCCCN(CCCCC)CCCCCCCCN1CCCc2ccccc21	76% (inactive)
CCCCC(CC)COC(=O)C[N+](C)(C)CCOC(c1ccccc1)c1ccccc1 (stereo not given)	42% (inactive)
O=C(Nc1ccc(Oc2ccc(F)cc2)c(Cl)c1)c1cnccn1	65.6% (inactive)
O=C(CCN1CCCCC1)c1ccc2ccccc2c1	103% (inactive)
O=C1CC(c2ccccc2)Cc2nc3ccc(Br)cc3cc21 (stereo not given)	39.6% (inactive)
CO[C@H]1CC[C@@]2(C)C(=CC[C@H]3[C@@H]4C[C@H](O)C[C@@]4(C)CC[C@@H]32)C1	67.8% (inactive)
COc1cc2c(c(OC)c1OC)-c1ccc(NNC(N)=S)c(=O)cc1[C@@H](NC(C)=O)CC2	5.07% (active)
COc1cc(-c2nc(SCCC(C)C)nc(Nc3ccc(S(N)(=O)=O)cc3)c2C#N)cc(OC)c1OC	51.2% (inactive)
O=C(Nc1cccc(C2=NCCN2)c1)c1cccc(C(=O)Nc2cccc(C3=NCCN3)c2)c1	95.4% (inactive)
Cc1ccc2c(c1)/C(=N\N=C/c1cn(C(C)C)c3ccccc13)C(=O)N2	61.7% (inactive)
Cc1ccc(-c2cn(C/C=C3\C=CN(S(=O)(=O)c4ccccc4)CC3)nn2)cc1	96.1% (inactive)
Cn1cc(-c2noc(-c3cn(C)c4ncc(F)cc34)n2)c2cc(Cl)ccc21	81.3% (inactive)
COc1ccc(/C=C2\N=C(Nc3ccccc3)N(NC(=O)c3ccccn3)C2=O)cc1	101% (inactive)
Cc1ccc(S(=O)(=O)NCCCNc2nccc(-c3c(-c4cccc(F)c4)nc4occn34)n2)cc1	102% (inactive)

====

- Tested on: SR leukemia
- assay.notes: NCI-60 one-dose screen, 48 h
- experimental.setup: 10 µM unless noted
- Procedure: Growth inhibition of the SR human tumor cell line is measured as a screen for anti-cancer activity. Cells are grown in 96 well plates and exposed to the test compound for 48 hours. Compounds are tested at a single concentration, which is 10^-5 M for most compounds. The reported endpoint is percent growth (GI% or GIPRCNT), where numbers from 0 - 100% represent growth inhibition, and numbers from -100% - 0 represent cell death. For example, a value of 40 represents 60% growth inhibition. […]
This is part of a sample that, as a whole, favours compounds with a hit. Of some 83,000 tested, about 20% had one in any assay. Active and inactive are the calls of the source. How the source made its calls: active means growth percent below 10; inactive means the rest.
Classes used: Yes for active, No for inactive

molecule	assigned.category
CC(=O)n1cc(C=O)c2ccccc21	No
CC1Cc2c(ncnc2-n2cnc3ccccc32)N(C)c2ccccc21 (stereo not drawn)	No
Cn1cc(-c2noc(-c3cn(C)c4ncc(F)cc34)n2)c2ccccc21	No
O=C(O)CC1CCCCC1c1ccccc1 (stereo not drawn)	No
CCCCCCCCN(CCCCCCCC)CC(O)c1ccc(Cl)c(C)c1Cl (stereo not drawn)	No
C[C@@H]1C[C@H]2C(=O)O[C@@H](C)[C@H](NC(=O)[C@H](Cc3cc(F)cc(F)c3)NC(=O)Nc3ccc(C4CC4)cc3F)C(=O)N3CCC[C@H]3C(=O)N3CCCC[C@H]3C(=O)N[C@@H](C)C(=O)N2C1	No
Fc1cc2[nH]ncc2c2c3c(c(-c4cn[nH]c4C(F)(F)F)nc12)C1CCC3C1 (stereo not drawn)	Yes
Cc1nc(Cl)c2c(n1)N(C)c1ccc(Cl)cc1C(C)C2 (stereo not drawn)	No
O=C(Nc1ccc(F)cc1)c1ccccc1	No
O=C(NCCCNC(=O)OCc1ccc2c(Br)cc(Br)c(O)c2n1)OCc1ccc2c(Br)cc(Br)c(O)c2n1	Yes
C=C(C)[C@@H]1CC[C@]2(C(N)=O)CC[C@]3(C)[C@H](CC[C@@H]4[C@@]5(C)C/C(=C/c6cccnc6)C(=O)C(C)(C)[C@@H]5CC[C@]43C)[C@@H]12	No
Cc1nc(Cl)cc(N(c2cc(Cl)nc(C)n2)c2ncc(C(=O)Nc3c(C)cccc3Cl)s2)n1	No
CC(C)C1=NOC(=O)C1=Cc1cn(-c2ccccc2)nc1-c1ccc(Br)cc1	Yes
